Numbers sourced from patent US11826351B2.

Molecular target: Recombinant BTK^WT kinase (Homo sapiens, UniProt Q06187)
Sequence (Q06187 whole entry): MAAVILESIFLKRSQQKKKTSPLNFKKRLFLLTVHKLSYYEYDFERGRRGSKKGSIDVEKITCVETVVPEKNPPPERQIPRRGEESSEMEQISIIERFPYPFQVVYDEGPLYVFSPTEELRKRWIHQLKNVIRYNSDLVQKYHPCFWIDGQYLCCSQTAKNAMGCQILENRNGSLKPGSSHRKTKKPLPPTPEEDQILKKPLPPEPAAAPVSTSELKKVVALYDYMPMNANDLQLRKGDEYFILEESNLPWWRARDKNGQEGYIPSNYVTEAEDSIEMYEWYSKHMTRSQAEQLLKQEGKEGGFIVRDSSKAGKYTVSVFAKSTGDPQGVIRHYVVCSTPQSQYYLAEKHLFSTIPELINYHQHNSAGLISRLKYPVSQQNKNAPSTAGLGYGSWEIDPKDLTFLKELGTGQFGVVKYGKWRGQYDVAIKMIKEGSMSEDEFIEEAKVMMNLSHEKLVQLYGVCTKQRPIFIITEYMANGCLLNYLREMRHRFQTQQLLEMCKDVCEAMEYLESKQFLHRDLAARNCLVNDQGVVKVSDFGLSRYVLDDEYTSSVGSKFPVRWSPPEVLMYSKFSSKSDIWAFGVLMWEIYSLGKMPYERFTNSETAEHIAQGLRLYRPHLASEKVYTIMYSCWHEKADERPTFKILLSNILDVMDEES
Assay: BTK WT binding affinity (LanthaScreen TR-FRET)
Conditions: Kinase Tracer 236, 5 h incubation
Parameter measured: IC50

# annotated cases, reported IC50 shown
So for COc1ccc(F)cc1C(=O)NCc1cc(F)c(-c2nn(C3CCCOC3)c(N)c2C(N)=O)cc1F (stereo not drawn) , the logged IC50 turned out to be < 0.01 µM

So for COc1ccccc1C(=O)NCc1cc(F)c(-c2nn(C3CCOCC3)c(N)c2C(N)=O)cc1F , the logged IC50 turned out to be 0.01 to 0.1 µM

So for COc1ccc(F)cc1C(=O)NCc1c(F)cc(-c2nn(C3CCCOC3)c(N)c2C(N)=O)cc1F (stereo not drawn) , the logged IC50 turned out to be 0.01 to 0.1 µM

So for COc1ccccc1C(=O)NCc1ccc(-c2nn(C3CCC(C)(O)CC3)c(N)c2C(N)=O)cc1 (single isomer, unassigned) [Example 33] , the logged IC50 turned out to be < 0.01 µM

So for COc1ccccc1C(=O)NCc1ccc(-c2nn(-c3ccccc3)c(N)c2C(N)=O)cc1 , the logged IC50 turned out to be < 0.01 µM

So for COc1ccccc1C(=O)NCc1ccc(-c2nn(CC(=O)C(C)(C)C)c(N)c2C(N)=O)cc1 , the logged IC50 turned out to be 0.01 to 0.1 µM

So for COc1ccccc1C(=O)NCc1ccc(-c2nn(CC3CCCCC3)c(N)c2C(N)=O)cc1 , the logged IC50 turned out to be < 0.01 µM

So for COc1ccccc1C(=O)NCc1ccc(-c2nn(C3CCCC3)c(N)c2C(N)=O)cc1 , the logged IC50 turned out to be < 0.01 µM

Others:
So for COc1ccc(F)cc1C(=O)NCc1ccc(-c2nn(C(C(C)(C)C)C(F)(F)F)c(N)c2C(N)=O)cc1 (stereo not drawn) , the logged IC50 turned out to be 0.01 to 0.1 µM

So for COc1ccc(F)cc1C(=O)NCc1ccc(-c2nn(C(C)C3CCOC3)c(N)c2C(N)=O)cc1 (mixture of isomers) , the logged IC50 turned out to be < 0.01 µM

So for COc1ccccc1C(=O)NCc1ccc(-c2nn(C3CCCC(O)C3)c(N)c2C(N)=O)cc1 (stereo not drawn) , the logged IC50 turned out to be < 0.01 µM

So for COc1ccc(F)cc1C(=O)NCc1ccc(-c2nn(C(C)C(F)(F)F)c(N)c2C(N)=O)c(F)c1F (stereo not drawn) , the logged IC50 turned out to be 0.01 to 0.1 µM

---

Target: Recombinant BTK^WT kinase (Homo sapiens)
Test: BTK WT binding affinity (LanthaScreen TR-FRET)
Conditions: Kinase Tracer 236, 5 h incubation
Property: IC50; scope: individual molecules

So for COc1ccccc1C(=O)NCc1ccc(-c2nn(-c3cccc(C(F)(F)F)c3)c(N)c2C(N)=O)cc1 , the logged IC50 turned out to be 0.01 to 0.1 µM

So for COc1ccccc1C(=O)NCc1cc(F)c(-c2nn(C3CCOC3)c(N)c2C(N)=O)cc1F (stereo not shown) , the logged IC50 turned out to be 0.01 to 0.1 µM

So for CCNc1c(C(N)=O)c(-c2ccc(CNC(=O)c3ccccc3OC)cc2)nn1C1CCCC1 , the logged IC50 turned out to be < 0.01 µM

Others:
So for CNc1c(C(N)=O)c(-c2ccc(CNC(=O)c3ccccc3OC)cc2)nn1C1CCC1 , the logged IC50 turned out to be < 0.01 µM

So for CCOC(=O)C1CCC(n2nc(-c3ccc(CNC(=O)c4ccccc4OC)cc3)c(C(N)=O)c2N)CC1 (stereo not shown) , the logged IC50 turned out to be < 0.01 µM

So for COc1ccccc1C(=O)NCc1ccc(-c2nn(C3CCOC3)c(N)c2C(N)=O)cc1F (stereo not shown) , the logged IC50 turned out to be < 0.01 µM

So for COc1ccc(F)cc1C(=O)NCc1ccc(-c2nn(C3CCN(C)CC3(F)F)c(N)c2C(N)=O)cc1 (stereo not shown) , the logged IC50 turned out to be < 0.01 µM

So for COc1ccccc1C(=O)NCc1ccc(-c2nn([C@@H]3CCOC3)c(N)c2C(N)=O)cc1 [Example 83b] , the logged IC50 turned out to be < 0.01 µM

So for CCC(n1nc(-c2ccc(CNC(=O)c3ccccc3OC)cc2)c(C(N)=O)c1N)C(F)(F)F (stereo not shown) , the logged IC50 turned out to be 0.01 to 0.1 µM

---

Property: IC50; scope: individual molecules
Molecular target: Recombinant EGFR (Homo sapiens, UniProt P00533)
Sequence (P00533 25-1210): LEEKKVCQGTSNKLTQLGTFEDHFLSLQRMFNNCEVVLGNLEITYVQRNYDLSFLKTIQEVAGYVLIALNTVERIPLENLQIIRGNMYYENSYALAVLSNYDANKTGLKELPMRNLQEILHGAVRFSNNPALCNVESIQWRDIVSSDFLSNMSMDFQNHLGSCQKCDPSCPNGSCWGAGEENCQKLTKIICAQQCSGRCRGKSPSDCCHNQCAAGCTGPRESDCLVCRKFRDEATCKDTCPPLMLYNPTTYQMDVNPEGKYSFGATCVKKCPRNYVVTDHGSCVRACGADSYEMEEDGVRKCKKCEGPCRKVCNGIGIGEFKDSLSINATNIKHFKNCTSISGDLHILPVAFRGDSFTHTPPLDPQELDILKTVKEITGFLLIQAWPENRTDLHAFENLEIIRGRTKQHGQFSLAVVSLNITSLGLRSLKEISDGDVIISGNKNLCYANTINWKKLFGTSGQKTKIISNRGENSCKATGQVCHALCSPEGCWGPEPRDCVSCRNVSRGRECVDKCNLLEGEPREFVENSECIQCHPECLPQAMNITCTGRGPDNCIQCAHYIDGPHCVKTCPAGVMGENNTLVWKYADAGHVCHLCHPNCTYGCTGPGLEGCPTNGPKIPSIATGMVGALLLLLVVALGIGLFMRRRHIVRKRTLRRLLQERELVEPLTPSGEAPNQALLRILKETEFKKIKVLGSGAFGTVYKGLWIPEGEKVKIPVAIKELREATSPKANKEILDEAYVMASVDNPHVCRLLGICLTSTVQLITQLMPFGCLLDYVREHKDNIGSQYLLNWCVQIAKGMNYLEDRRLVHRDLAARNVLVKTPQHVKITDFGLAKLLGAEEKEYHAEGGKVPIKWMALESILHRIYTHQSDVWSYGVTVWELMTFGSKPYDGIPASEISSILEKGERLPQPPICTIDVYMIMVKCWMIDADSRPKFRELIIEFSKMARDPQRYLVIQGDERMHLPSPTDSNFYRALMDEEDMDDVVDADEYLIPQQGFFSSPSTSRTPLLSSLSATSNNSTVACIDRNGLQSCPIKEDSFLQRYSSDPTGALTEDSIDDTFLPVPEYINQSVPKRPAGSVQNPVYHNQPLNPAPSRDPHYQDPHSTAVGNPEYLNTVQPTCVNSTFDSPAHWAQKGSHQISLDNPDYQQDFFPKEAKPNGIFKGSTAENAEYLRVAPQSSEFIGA
Test: EGFR binding affinity (LanthaScreen TR-FRET)
Conditions: Kinase Tracer 199, 5 h incubation

# annotated cases, reported IC50 shown
So for COc1ccc(F)cc1C(=O)NCc1ccc(-c2nn(C3CN(C)CC3(F)F)c(N)c2C(N)=O)cc1 (stereo not drawn) [Example 199] , the logged IC50 turned out to be 1 to 10 µM

So for COc1ccccc1C(=O)NCc1c(F)cc(-c2nn(C3CCOCC3)c(N)c2C(N)=O)cc1F [Example 132] , the logged IC50 turned out to be > 10 µM

So for COc1ccc(F)cc1C(=O)NCc1ccc(-c2nn(C(CCO)C(F)F)c(N)c2C(N)=O)cc1 (stereo not drawn) [Example 193] , the logged IC50 turned out to be 1 to 10 µM

So for COc1ccccc1C(=O)NCc1ccc(-c2nn(C3CC(C)OC(C)C3)c(N)c2C(N)=O)cc1 (stereo not drawn) [Example 104] , the logged IC50 turned out to be 1 to 10 µM

So for COc1ccccc1C(=O)NCc1ccc(-c2nn(C3CCC(C(=O)N(C)C)CC3)c(N)c2C(N)=O)cc1 (single isomer, unassigned) [Example 57a] , the logged IC50 turned out to be 0.1 to 1 µM

Others:
So for COc1ccc(F)cc1C(=O)NCc1cc(F)c(-c2nn(C(C)C(F)(F)F)c(N)c2C(N)=O)cc1F (stereo not drawn) [Example 168] , the logged IC50 turned out to be 1 to 10 µM

So for COc1ccccc1C(=O)NCc1ccc(-c2nn(C3CCC(C)C3)c(N)c2C(N)=O)cc1 (stereo not drawn) [Example 5] , the logged IC50 turned out to be 0.1 to 1 µM

So for COc1ccccc1C(=O)NCc1ccc(-c2nn(C3CC(C)(C)OC(C)(C)C3)c(N)c2C(N)=O)cc1 [Example 90] , the logged IC50 turned out to be 1 to 10 µM

So for COc1ccccc1C(=O)NCc1ccc(-c2nn(-c3cccnc3)c(N)c2C(N)=O)cc1 [Example 51] , the logged IC50 turned out to be 0.1 to 1 µM

So for COc1ccccc1C(=O)NCc1ccc(-c2nn(CCc3nnn[nH]3)c(N)c2C(N)=O)cc1 [Example 25] , the logged IC50 turned out to be 1 to 10 µM

So for COc1ccccc1C(=O)NCc1ccc(-c2nn(C3CCC(C(=O)O)CC3)c(N)c2C(N)=O)cc1 (mixture of isomers) [Example 74] , the logged IC50 turned out to be 0.1 to 1 µM

So for COc1ccccc1C(=O)NCc1ccc(-c2nn(C3CCC(OCc4ccccc4)CC3)c(N)c2C(N)=O)cc1 (mixture of isomers) [Example 28] , the logged IC50 turned out to be 0.1 to 1 µM

So for CCC(C)n1nc(-c2ccc(CNC(=O)c3ccccc3OC)cc2)c(C(N)=O)c1N (stereo not drawn) [Example 150] , the logged IC50 turned out to be 1 to 10 µM

So for COc1ccccc1C(=O)NCc1ccc(-c2nn([C@H]3CC[C@H](O)C3)c(N)c2C(N)=O)cc1 (relative stereo) [Example 46] , the logged IC50 turned out to be 0.1 to 1 µM

So for CNc1c(C(N)=O)c(-c2ccc(CNC(=O)c3ccccc3OC)cc2)nn1-c1cccnc1 [Example 110] , the logged IC50 turned out to be 1 to 10 µM

---

Target: Recombinant BTK^C481S kinase (Homo sapiens, UniProt Q06187, C481S)
Sequence (Q06187 whole entry C481S): as the sequence (Q06187 whole entry) above, with C481S counted along it
Test: BTK C481S binding affinity (LanthaScreen TR-FRET)
Conditions: Kinase Tracer 236, 5 h incubation
Property: IC50; scope: individual compounds

So for COc1ccc(F)cc1C(=O)NCc1c(F)cc(-c2nn(C3CCOCC3)c(N)c2C(N)=O)cc1F , the logged IC50 turned out to be 10 to 100 nM

So for COc1ccccc1C(=O)NCc1ccc(-c2nn([C@@H]3CCOC3)c(N)c2C(N)=O)cc1 [Example 83b] , the logged IC50 turned out to be < 10 nM

So for COc1ccc(F)cc1C(=O)NCc1ccc(-c2nn(C3CCCOC3)c(N)c2C(N)=O)cc1 (centres unmarked) , the logged IC50 turned out to be < 10 nM

---

Biological target: Recombinant BTK^WT kinase (Homo sapiens, UniProt Q06187)
Test: BTK WT binding affinity (LanthaScreen TR-FRET)
Settings: Kinase Tracer 236, 5 h incubation
Parameter measured: IC50

# annotated cases, reported IC50 shown
So for COc1ccccc1C(=O)NCc1ccc(-c2nn(C3CC(=O)c4ccccc43)c(N)c2C(N)=O)cc1 (stereo not shown) , the logged IC50 turned out to be < 10 nM

So for COc1ccccc1C(=O)NCc1ccc(-c2nn(C3CCCC3)c(N)c2C(N)=O)c(C)c1 , the logged IC50 turned out to be 10 to 100 nM

So for COc1ccccc1C(=O)NCc1ccc(-c2nn(C3CCC3)c(N)c2C(N)=O)cc1 , the logged IC50 turned out to be < 10 nM

Others:
So for CCC(C)n1nc(-c2ccc(CNC(=O)c3ccccc3OC)cc2)c(C(N)=O)c1N (stereo not shown) , the logged IC50 turned out to be < 10 nM
